- tested.on: T1, human GFRα3 expressed with a C-terminal myc-myc-hexahistidine tag (human, UniProt O60609 32-374, biotinylated (sites not given) in ELISA format 2 and in the Octet cross-competition; not in SPR)
- T1 construct: also called hGFRα3-mmh; hGFRα3-mmH
- experiment.notes: SPR, Ab captured, 37C
Catalogue of kon readings, one per entry.
Output spec: scalar in M⁻¹ s⁻¹, unitless text.

Examples with answers:
| binder | assay.endpoint | reported.result |
| --- | --- | --- |
| H4H2295S (antibody, human IgG4, V domains shown, human IgG4 Fc (H4H)) VH: EVQLVESGGGLVQAGGSLRLSCVASGFTFSSYAMSWVRQAPGKGLEWVSAISGSGGSTYSADSVKGRFTISRDNSKNTLYLQMNSLRAEDTAVYYCTKPSSYSSSNFYYGMDVWGQGTTVTVSS VL: DIQMTQSPSSVSASVGDRVTITCRASQGISSWLAWYQQKPGKAPKLLIYTASSLQSGVPSRFSGSGSRTDFTLTISSLQPEDFATYYCQQTNSLPLTFGPGTKVEIK | kon | 669000 |
| H4H2291S (antibody, human IgG4, V domains shown, human IgG4 Fc (H4H)) VH: EVQLVESGGGLVQPGESLRLSCAASGFTFSNYAMSWVRQAPGKGLEWVSVISGSGGSTYYADSVKGRFTMSRDNSKNTLYLQMNSLRAEDTAVYYCAKPPSRAARYFNYGMDVWGQGTTVTVSS VL: AIRMTQSPSSVSASVGDRVTITCRASQGISSWLAWYQQKPGKAPKLLIYAASSLQSGVPSRFSGSGSGTDFTLTISSLQPEDFATYYCQQANSFPFTFGGGTKVEIK | kon | 558000 |
| H4H2364S (antibody, human IgG4, V domains shown, human IgG4 Fc (H4H)) VH: EVQLVESGGGLEQPGGSLRLSCAASGFTFSSYVMSWVRQVPGKGLEWVSVISGSGGSTYYADSVKGRFTISRDNSKNTLYLQMNSLRAEDTAVYYCAKPSSYSSSNFHYGMDVWGQGTTVTVSS VL: DIQMTQSPYSVSASVGDRVTITCRASQGISSWLAWYQQKPGRAPKLLIYAASSLQSGVPSRFSGSGSGTDFTLTISSLQPEDFATYYCQKTNSFPFTFGPGTKVEIK | kon | 338000 |

For this binder ( H2aM2210N (antibody, mouse IgG2, V domains shown, chimeric, mouse IgG2 Fc (H2M/H2aM); also called H2M2210N) VH: EVQLLESGGGLVQPGGSLRVSCAASGFTFSTSAMSWVRQAPGKGLEWVSGISGIGGGSTYYADSVKGRFTISRDNSKNTLYLQMNSLRAEDTAVYFCAKFYKWNSYIFDLWGQGTMVTVSS VL: EIVLTQSPDTLSLSPGERATLSCRASQSVSSSYFAWYQQKPGQAPRLLMYSASSRATGIPDRFSGSGSGTDFSLTISRLEPEDFAVYYCQQYGRSLTFGGGTKVEIK ), measured kon is 212000
